Exercise: for every item that follows, state its recorded IC50.
- TARGET_OR_SYSTEM: Human immunodeficiency virus type 1 protease (Human immunodeficiency virus 1, UniProt Q72874)
Give just the number in nM; leave the unit off.

Query :: Dear colleague, I am looking for the recorded IC50 of the following molecule: "COc1cc(CN2C(=O)N(Cc3ccc(O)c(OC)c3)N(C(=O)CN3CCCC3)C[C@@H](O)[C@H]2Cc2ccccc2)ccc1O"
Result :: 7.9

Query :: Dear colleague, I am looking for the recorded IC50 of the following molecule: "COc1cc(CN2C(=O)N(Cc3ccc(O)c(OC)c3)N(C(=O)CCCCN3CCOCC3)C[C@@H](O)[C@H]2Cc2ccccc2)ccc1O"
Result :: 2.1

Query :: Dear colleague, I am looking for the recorded IC50 of the following molecule: "COc1cc(CN2C(=O)N(Cc3ccc(O)c(OC)c3)N(C(=O)CN3CCNCC3)C[C@@H](O)[C@H]2Cc2ccccc2)ccc1O"
Result :: 6.1

Query :: Dear colleague, I am looking for the recorded IC50 of the following molecule: "COc1cc(CN2C(=O)N(Cc3ccc(O)c(OC)c3)N(C(=O)CCCN3CCOCC3)C[C@@H](O)[C@H]2Cc2ccccc2)ccc1O"
Result :: 3.8

Query :: Dear colleague, I am looking for the recorded IC50 of the following molecule: "COc1cc(CN2C(=O)N(Cc3ccc(O)c(OC)c3)N(C(=O)CCc3ccncc3)C[C@@H](O)[C@H]2Cc2ccccc2)ccc1O"
Result :: 1.2

====

- TARGET_OR_SYSTEM: Human immunodeficiency virus type 1 protease (Human immunodeficiency virus 1) (UniProt Q72874)
- TEST_DETAILS: Inhibitory activity against HIV1 protease at 0.5 uM
RESULT_TYPE: inhibition (%)
Give just the number in %; leave the unit off.

Query :: Dear colleague, I am looking for the recorded inhibition of the following compound: "COc1cc(CN2C(=O)N(Cc3ccc(O)c(OC)c3)N(Cc3ccccc3)C[C@@H](O)[C@H]2Cc2ccccc2)ccc1O"
Result :: 81

Query :: Dear colleague, I am looking for the recorded inhibition of the following compound: "O=C(CCc1ccccc1)N1C[C@@H](O)[C@@H](Cc2ccccc2)N(Cc2ccccc2)C(=O)N1Cc1ccc2[nH]ncc2c1"
Result :: 66

Query :: Dear colleague, I am looking for the recorded inhibition of the following compound: "COc1cc(CN2C(=O)N(Cc3ccc(O)c(OC)c3)N(C(=O)CCCc3cccs3)C[C@@H](O)[C@H]2Cc2ccccc2)ccc1O"
Result :: 64

Query :: Dear colleague, I am looking for the recorded inhibition of the following compound: "COc1cccc(CCC(=O)N2C[C@@H](O)[C@@H](Cc3ccccc3)N(Cc3ccc(O)c(OC)c3)C(=O)N2Cc2ccc(O)c(OC)c2)c1"
Result :: 67

Query :: Dear colleague, I am looking for the recorded inhibition of the following compound: "COc1cc(CN2C(=O)N(Cc3ccc(O)c(OC)c3)N(C(=O)CCCc3ccccc3)C[C@@H](O)[C@H]2Cc2ccccc2)ccc1O"
Result :: 75

Query :: Dear colleague, I am looking for the recorded inhibition of the following compound: "N/C(=N/O)c1cccc(CN2C(=O)N(Cc3ccc4[nH]ncc4c3)N(C(=O)CCc3ccccc3)C[C@@H](O)[C@H]2Cc2ccccc2)c1"
Result :: 90

Query :: Dear colleague, I am looking for the recorded inhibition of the following compound: "CC(C)CC(=O)N1C[C@@H](O)[C@@H](Cc2ccccc2)N(Cc2ccc(O)cc2)C(=O)N1Cc1ccc(O)cc1"
Result :: 65

Query :: Dear colleague, I am looking for the recorded inhibition of the following compound: "COc1cc(CN2C(=O)N(Cc3ccc(O)c(OC)c3)N(C(=O)CCc3cccnc3)C[C@@H](O)[C@H]2Cc2ccccc2)ccc1O"
Result :: 58

Query :: Dear colleague, I am looking for the recorded inhibition of the following compound: "COc1cc(CN2C(=O)N(Cc3ccc(N)c(OC)c3)N(C(=O)CCc3ccccc3)C[C@@H](O)[C@H]2Cc2ccccc2)ccc1N"
Result :: 88

Query :: Dear colleague, I am looking for the recorded inhibition of the following compound: "COc1cc(CN2C(=O)N(Cc3ccc(O)c(OC)c3)N(C(=O)CC(C)C)C[C@@H](O)[C@H]2Cc2ccccc2)ccc1O"
Result :: 73

Query :: Dear colleague, I am looking for the recorded inhibition of the following compound: "N/C(=N/O)c1cccc(CN2C(=O)N(Cc3ccccc3)N(C(=O)CCc3ccccc3)C[C@@H](O)[C@H]2Cc2ccccc2)c1"
Result :: 73

Query :: Dear colleague, I am looking for the recorded inhibition of the following compound: "Nc1[nH]nc2ccc(CN3C(=O)N(Cc4ccccc4)[C@H](Cc4ccccc4)[C@H](O)CN3C(=O)CCc3ccccc3)cc12"
Result :: 48

Query :: Dear colleague, I am looking for the recorded inhibition of the following compound: "CC(C)CC(=O)N1C[C@@H](O)[C@@H](Cc2ccccc2)N(Cc2cccc(N)c2)C(=O)N1Cc1cccc(N)c1"
Result :: 66

Query :: Dear colleague, I am looking for the recorded inhibition of the following compound: "COc1cc(CN2C(=O)N(Cc3ccc(O)c(OC)c3)N(C(=O)CCc3ccccc3)C[C@@H](O)[C@H]2Cc2ccccc2)ccc1O"
Result :: 55

Query :: Dear colleague, I am looking for the recorded inhibition of the following compound: "COc1ccc(CCC(=O)N2C[C@@H](O)[C@@H](Cc3ccccc3)N(Cc3ccc(O)c(OC)c3)C(=O)N2Cc2ccc(O)c(OC)c2)cc1"
Result :: 67

====

- TARGET_OR_SYSTEM: Human immunodeficiency virus type 1 protease (Human immunodeficiency virus 1)
- TEST_DETAILS: Inhibitory activity against HIV1 protease at 0.5 uM
RESULT_TYPE: inhibition (%)
Give just the number in %; leave the unit off.

Query :: What value of inhibition on Human immunodeficiency virus type 1 protease (Human immunodeficiency virus 1) does "COc1cc(CN2C(=O)N(Cc3ccc(O)c(OC)c3)N(C(=O)CCc3ccc(O)cc3)C[C@@H](O)[C@H]2Cc2ccccc2)ccc1O" have?
Result :: 73

Query :: What value of inhibition on Human immunodeficiency virus type 1 protease (Human immunodeficiency virus 1) does "COc1cc(CN2C(=O)N(Cc3ccc(O)c(OC)c3)N(C(=O)CCc3ccc4c(c3)OCO4)C[C@@H](O)[C@H]2Cc2ccccc2)ccc1O" have?
Result :: 73

Query :: What value of inhibition on Human immunodeficiency virus type 1 protease (Human immunodeficiency virus 1) does "COc1cc(CN2C(=O)N(Cc3ccc(O)c(OC)c3)N(C(=O)CCc3ccc(F)cc3)C[C@@H](O)[C@H]2Cc2ccccc2)ccc1O" have?
Result :: 67

Query :: What value of inhibition on Human immunodeficiency virus type 1 protease (Human immunodeficiency virus 1) does "COc1cc(CN2C(=O)N(Cc3ccc(O)c(OC)c3)N(C(=O)CCc3ccc(OC)c(OC)c3)C[C@@H](O)[C@H]2Cc2ccccc2)ccc1O" have?
Result :: 72

====

Exercise: for every item that follows, state its recorded inhibition.
- TARGET_OR_SYSTEM: Human immunodeficiency virus type 1 protease (Human immunodeficiency virus 1)
- TEST_DETAILS: Inhibitory activity against HIV1 protease at 0.5 uM
Give just the number in %; leave the unit off.

Query :: Dear colleague, I am looking for the recorded inhibition of the following compound: "COc1cc(CN2C(=O)N(Cc3ccc(O)c(OC)c3)N(C(=O)CC3CCCC3)C[C@@H](O)[C@H]2Cc2ccccc2)ccc1O"
Result :: 66

Query :: Dear colleague, I am looking for the recorded inhibition of the following compound: "O=C(CCc1ccccc1)N1C[C@@H](O)[C@@H](Cc2ccccc2)N(Cc2ccc(O)cc2)C(=O)N1Cc1ccc(O)cc1"
Result :: 76

Query :: Dear colleague, I am looking for the recorded inhibition of the following compound: "Nc1cccc(CN2C(=O)N(Cc3ccc4[nH]ncc4c3)N(C(=O)CCc3ccccc3)C[C@@H](O)[C@H]2Cc2ccccc2)c1"
Result :: 74

Query :: Dear colleague, I am looking for the recorded inhibition of the following compound: COc1cc(CN2C(=O)N(Cc3ccc(O)c(OC)c3)N(C(=O)CCCC3CCCO3)C[C@@H](O)[C@H]2Cc2ccccc2)ccc1O (some centres undefined)
Result :: 76

====

Exercise: for every item that follows, state its recorded pEC50.
- System: Human immunodeficiency virus
- TEST_DETAILS: Antiviral activity against indinavir resistant HIV IND-R mutant strain
- Assay type: functional, organism-based
- SETUP_CONDITIONS: Human immunodeficiency virus 1, IND-R
Please report pEC50 as the negative decimal logarithm of the molar concentration, giving only the number.

Query :: Dear colleague, I am looking for the recorded pEC50 of the following compound: "Nc1[nH]nc2ccc(CN3C(=O)N(Cc4ccccc4)[C@H](Cc4ccccc4)[C@H](O)CN3C(=O)CCc3ccccc3)cc12"
Result :: 6.99

Query :: Dear colleague, I am looking for the recorded pEC50 of the following compound: Cc1cccc(C)c1OCC(=O)N[C@@H](Cc1ccccc1)[C@@H](O)C[C@H](Cc1ccccc1)NC(=O)[C@H](C(C)C)N1CCCNC1=O [LOPINAVIR]
Result :: 6.41

Query :: Dear colleague, I am looking for the recorded pEC50 of the following compound: "O=C(CCc1ccccc1)N1C[C@@H](O)[C@@H](Cc2ccccc2)N(Cc2ccc(O)cc2)C(=O)N1Cc1ccc(O)cc1"
Result :: 7.85

Query :: Dear colleague, I am looking for the recorded pEC50 of the following compound: "COc1cc(CN2C(=O)N(Cc3ccc(O)c(OC)c3)N(C(=O)CC3CCCC3)C[C@@H](O)[C@H]2Cc2ccccc2)ccc1O"
Result :: 6.88

Query :: Dear colleague, I am looking for the recorded pEC50 of the following compound: "O=C(CCc1ccccc1)N1C[C@@H](O)[C@@H](Cc2ccccc2)N(Cc2ccccc2)C(=O)N1Cc1ccc2[nH]ncc2c1"
Result :: 6.09

Query :: Dear colleague, I am looking for the recorded pEC50 of the following compound: "COc1cc(CN2C(=O)N(Cc3ccc(O)c(OC)c3)N(C(=O)CCc3ccccc3)C[C@@H](O)[C@H]2Cc2ccccc2)ccc1O"
Result :: 7.31

Query :: Dear colleague, I am looking for the recorded pEC50 of the following compound: "Nc1cccc(CN2C(=O)N(Cc3ccc4[nH]ncc4c3)N(C(=O)CCc3ccccc3)C[C@@H](O)[C@H]2Cc2ccccc2)c1"
Result :: 7.64

Query :: Dear colleague, I am looking for the recorded pEC50 of the following compound: "N/C(=N/O)c1cccc(CN2C(=O)N(Cc3ccc4[nH]ncc4c3)N(C(=O)CCc3ccccc3)C[C@@H](O)[C@H]2Cc2ccccc2)c1"
Result :: 7.24

Query :: Dear colleague, I am looking for the recorded pEC50 of the following compound: "COc1cc(CN2C(=O)N(Cc3ccc(O)c(OC)c3)N(C(=O)CC(C)C)C[C@@H](O)[C@H]2Cc2ccccc2)ccc1O"
Result :: 7.03

Query :: Dear colleague, I am looking for the recorded pEC50 of the following compound: "COc1cc(CN2C(=O)N(Cc3ccc(O)c(OC)c3)N(C(=O)CCc3ccoc3)C[C@@H](O)[C@H]2Cc2ccccc2)ccc1O"
Result :: 6.64

Query :: Dear colleague, I am looking for the recorded pEC50 of the following compound: "CC(C)CC(=O)N1C[C@@H](O)[C@@H](Cc2ccccc2)N(Cc2ccc(O)cc2)C(=O)N1Cc1ccc(O)cc1"
Result :: 6.77

Query :: Dear colleague, I am looking for the recorded pEC50 of the following compound: "COc1cc(CN2C(=O)N(Cc3ccc(O)c(OC)c3)N(C(=O)CCc3ccc(F)cc3)C[C@@H](O)[C@H]2Cc2ccccc2)ccc1O"
Result :: 6.79

Query :: Dear colleague, I am looking for the recorded pEC50 of the following compound: "COc1cc(CN2C(=O)N(Cc3ccc(O)c(OC)c3)N(C(=O)CCCCN3CCOCC3)C[C@@H](O)[C@H]2Cc2ccccc2)ccc1O"
Result :: 5.98

Query :: Dear colleague, I am looking for the recorded pEC50 of the following compound: "COc1ccc(CCC(=O)N2C[C@@H](O)[C@@H](Cc3ccccc3)N(Cc3ccc(O)c(OC)c3)C(=O)N2Cc2ccc(O)c(OC)c2)cc1"
Result :: 7.06

Query :: Dear colleague, I am looking for the recorded pEC50 of the following compound: "COc1cc(CN2C(=O)N(Cc3ccc(N)c(OC)c3)N(C(=O)CCc3ccccc3)C[C@@H](O)[C@H]2Cc2ccccc2)ccc1N"
Result :: 6.30

Query :: Dear colleague, I am looking for the recorded pEC50 of the following compound: "COc1cc(CN2C(=O)N(Cc3ccc(O)c(OC)c3)N(C(=O)CCc3ccco3)C[C@@H](O)[C@H]2Cc2ccccc2)ccc1O"
Result :: 7.09

Query :: Dear colleague, I am looking for the recorded pEC50 of the following compound: "COc1cc(CN2C(=O)N(Cc3ccc(O)c(OC)c3)N(C(=O)CCc3ccc4c(c3)OCO4)C[C@@H](O)[C@H]2Cc2ccccc2)ccc1O"
Result :: 7.27
